- TEST_METHOD_NOTES: log P by HPLC
- Format: physicochemical
- COND: EEC directive 79/831 Annex V. A8 by HPLC (gradient method, acetonitrile/0.1% aqueous phosphoric acid)
PROPERTY_MEASURED: logP

In the examples that follow, each entry is paired with its recorded logP.
1. Cc1nc2nc(Cl)c(-c3ccccc3F)c(NOC(C)C)n2n1 = 2.54
2. Cc1ccc(Nc2c(-c3ccc(F)cc3F)c(Cl)nc3nc(C)nn23)cc1 = 3.05
3. C=C(C)CN(CC)c1c(-c2c(F)cccc2Cl)c(Cl)nc2nc(C3CC3)nn12 = 4.61
4. Fc1cccc(Cl)c1-c1c(Cl)nc2nc(C3CC3)nn2c1NCC(F)(F)F = 3.19
5. CCN(CCOC)c1c(-c2c(F)cccc2F)c(Cl)nc2nc(C)nn12 = 2.74

Problem: Need logP of CCCN(CC1CCCCO1)c1c(-c2c(F)cccc2F)c(Cl)nc2nc(C)nn12 (stereo not drawn) , thanks.
Result: 3.95

====

- TEST_METHOD_NOTES: log P by HPLC
- Format: physicochemical
- COND: EEC directive 79/831 Annex V. A8 by HPLC (gradient method, acetonitrile/0.1% aqueous phosphoric acid)
PROPERTY_MEASURED: logP

In the examples that follow, each entry is paired with its recorded logP.
1) Cc1nc2nc(Cl)c(-c3ccc(F)cc3F)c(N3CCC4(CC3)OCCO4)n2n1 = 2.68
2) CCN(CC)c1c(-c2ccccc2F)c(Cl)nc2nc(C)nn12 = 2.95
3) Cc1nc2nc(Cl)c(-c3c(F)cccc3F)c(N3CCC(Br)CC3)n2n1 = 3.33
4) Cc1nc2nc(Cl)c(-c3ccccc3F)c(NOCc3cccc(C(F)(F)F)c3)n2n1 = 3.38
5) Cc1nc2nc(Cl)c(-c3ccccc3F)c(NOCc3cccc(Cl)c3)n2n1 = 3.28
6) CN(CC1CC1(Cl)Cl)c1c(-c2ccccc2Cl)c(Cl)nc2nc(C3CC3)nn12 (stereo not drawn) = 4.29
7) Cc1nc2nc(Cl)c(-c3ccccc3Cl)c(N3CCC(F)CC3)n2n1 = 3.05
8) CCOC(=O)CN(C)c1c(-c2ccc(F)cc2F)c(Cl)nc2nc(C)nn12 = 2.8
9) CCN(CCOC)c1c(-c2c(F)cc(F)cc2F)c(Cl)nc2nc(C3CC3)nn12 = 3.64
10) CCC(C)Nc1c(-c2c(F)cc(F)cc2F)c(Cl)nc2nc(C3CC3)nn12 (stereo not drawn) = 3.69

Problem: Need logP of "Cc1nc2nc(Cl)c(-c3c(F)cccc3F)c(NOCc3c(Cl)cccc3Cl)n2n1" , thanks.
Result: 3.31

Problem: Need logP of "Cc1nc2nc(Cl)c(-c3c(F)cccc3F)c(NOCc3ccc(Cl)cc3Cl)n2n1" , thanks.
Result: 3.69

Problem: Need logP of Cc1nc2nc(Cl)c(-c3ccc(F)cc3F)c(NC3CCCC(C(F)(F)F)C3)n2n1 (stereo not drawn) , thanks.
Result: 3.52

Problem: Need logP of "Cc1nc2nc(Cl)c(-c3ccc(F)cc3F)c(N3CCOCC3)n2n1" , thanks.
Result: 2.3

====

Reported logP by item:
- TEST_METHOD_NOTES: log P by HPLC
- Assay type: physicochemical
- COND: HPLC, gradient method, acetonitrile/0.1% aqueous phosphoric acid; EEC directive 79/831 Annex V. A8

1) C=CCN(C)c1c(-c2c(F)cc(F)cc2F)c(Cl)nc2nc(C)nn12 [compound 152] = 3.18
2) Cc1nc2nc(Cl)c(-c3c(F)cccc3F)c(N(C)CC#N)n2n1 [compound 564] = 2.18
3) Cc1nc2nc(Cl)c(-c3ccc(Cl)cc3Cl)c(NC(C)C(C)C)n2n1 (stereo not shown) [compound 788] = 4.06

Problem: Need logP of CC1CCCN1c1c(-c2c(F)cccc2Cl)c(Cl)nc2nc(C3CC3)nn12 (stereo not shown) [compound 702] , thanks.
Result: 3.94

Problem: Need logP of CCCNc1c(-c2c(F)cccc2F)c(Cl)nc2nc(C)nn12 [compound 172] , thanks.
Result: 2.52

Problem: Need logP of Fc1ccc(-c2c(Cl)nc3nc(C(F)(F)F)nn3c2N2CCCCC2)c(F)c1 [compound 809] , thanks.
Result: 4.45

====

- TEST_METHOD_NOTES: log P by HPLC
- Assay type: physicochemical
- COND: HPLC, gradient method, acetonitrile/0.1% aqueous phosphoric acid; EEC directive 79/831 Annex V. A8
Reported logP by item:
The reply should be a number, written without any unit.

1. Fc1ccc(-c2c(Cl)nc3nc(C4CC4)nn3c2N2CCC(N3CCOCC3)CC2)c(F)c1 = 1.55
2. Cc1nc2nc(Cl)c(-c3c(F)cc(F)cc3F)c(NC(C)C(=O)OC(C)(C)C)n2n1 (stereo not drawn) = 3.44
3. Cc1nc2nc(Cl)c(-c3c(F)cccc3Cl)c(NC(C)C(F)(F)F)n2n1 (stereo not drawn) = 3.01
4. CC(C)CNc1c(-c2ccc(Cl)cc2Cl)c(Cl)nc2nc(C3CC3)nn12 = 4.3
5. C=CCN(CC)c1c(-c2c(F)cccc2F)c(Cl)nc2nc(C)nn12 = 3.3
6. CCC(C)Nc1c(-c2ccc(F)cc2F)c(Cl)nc2nc(C(F)(F)F)nn12 (stereo not drawn) = 4.03
7. CCN(CC)c1c(-c2c(F)cccc2F)c(Cl)nc2nc(C)nn12 = 2.98
8. CCN(CC)c1c(-c2c(F)cccc2Cl)c(Cl)nc2nc(C)nn12 = 3.33

Consider the record given below.
Problem: Need logP of "CNc1c(-c2c(F)cc(F)cc2F)c(Cl)nc2nc(C(F)(F)F)nn12" , thanks.
Result: 3.17

====

- TEST_METHOD_NOTES: log P by HPLC
- Assay type: physicochemical
- COND: HPLC, gradient method, acetonitrile/0.1% aqueous phosphoric acid; EEC directive 79/831 Annex V. A8
Labelling: logP reported below 4 becomes satisfied; at or above becomes not satisfied.

Problem: A record lists "Cc1nc2nc(Cl)c(-c3c(F)cccc3F)c(N(C)CCC#N)n2n1" . Is its logP below 4?
Result: satisfied

====

- TEST_METHOD_NOTES: log P by HPLC
- Type: physicochemical
- COND: HPLC, gradient method, acetonitrile/0.1% aqueous phosphoric acid; EEC directive 79/831 Annex V. A8
// bucketize logP: bin 0 (below 3), bin 1 (3 to below 4), bin 2 (4 or more)

Before answering, review these 5 worked examples.
1) CCC(C)Nc1c(-c2c(F)cccc2F)c(Cl)nc2nc(C3CC3)nn12 (stereo not drawn) = bin 1
2) Cc1nc2nc(Cl)c(-c3c(F)cc(F)cc3F)c(NCC(F)(F)F)n2n1 = bin 0
3) CCc1nc2nc(Cl)c(-c3c(F)cc(F)cc3F)c(N3CCSCC3)n2n1 = bin 1
4) Cc1nc2nc(Cl)c(-c3c(F)cccc3F)c(N3CCC(C(F)(F)F)CC3)n2n1 = bin 1
5) CC1(C)CCN(c2c(-c3ccc(F)cc3F)c(Cl)nc3nc(C4CC4)nn23)CC1 = bin 2

Problem: Using the reported logP, which band applies to COC(=O)C1CCCCN1c1c(-c2ccc(F)cc2F)c(Cl)nc2nc(C(F)(F)F)nn12 (stereo not drawn) ?
Result: bin 2

Problem: Using the reported logP, which band applies to "CCc1nc2nc(Cl)c(-c3c(F)cc(F)cc3F)c(NC)n2n1" ?
Result: bin 0

====

- TEST_METHOD_NOTES: log P by HPLC
- Assay type: physicochemical
- COND: HPLC, gradient method, acetonitrile/0.1% aqueous phosphoric acid; EEC directive 79/831 Annex V. A8
Kind request: treat 4 as inclusive, so logP at 4 or higher is 1.0, anything lower is 0.0.

Before answering, review these 3 worked examples.
1) CCONc1c(-c2c(F)cccc2F)c(Cl)nc2nc(C)nn12 = 0.0
2) CC1(C)CCN(c2c(-c3ccc(F)cc3F)c(Cl)nc3nc(C(F)(F)F)nn23)CC1 = 1.0
3) FC(F)CNc1c(-c2ccc(Cl)cc2Cl)c(Cl)nc2nc(C3CC3)nn12 = 0.0

Problem: Threshold query (logP >= 4) on Cc1nc2nc(Cl)c(-c3c(F)cccc3Cl)c(NC(C)C(C)C)n2n1 (centres unmarked)
Result: 0.0

Problem: Threshold query (logP >= 4) on "Cc1nc2nc(Cl)c(-c3c(F)cccc3F)c(NC(C)C)n2n1"
Result: 0.0

Problem: Threshold query (logP >= 4) on "Cc1nc2nc(Cl)c(-c3c(F)cc(F)cc3F)c(NNC(C)C)n2n1"
Result: 0.0

Problem: Threshold query (logP >= 4) on "Fc1ccc(-c2c(Cl)nc3nc(C4CC4)nn3c2N2CCCC2)c(F)c1"
Result: 0.0

Problem: Threshold query (logP >= 4) on "CCOC(=O)CN(c1c(-c2ccc(F)cc2F)c(Cl)nc2nc(C(F)(F)F)nn12)C1CC1"
Result: 1.0

Problem: Threshold query (logP >= 4) on "Fc1ccc(-c2c(Cl)nc3nc(C4CC4)nn3c2N2CCCC2)c(Cl)c1"
Result: 0.0
